Listed below: koff values for each entry.
# tested.system: T1, human LTBR ECD (S28-M227) N- and C-terminally extended-Fc-fusion wt kih HRYF-Avi-His biotinylated (P1AE7979) (human, UniProt P0DOX5 223-449 = IgG part, biotinylated avi tag)
# T1 construct: also called hu LTBR
# assay.remarks: SPR, IgG captured;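 also: rate constants and KD obtained by fitting double-referenced sensorgrams to a 1:1 Langmuir binding model, with dissociation followed for 600 s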
measure: koff

- binder: "P1AE9457 (antibody, human IgG1, kappa, L234A L235A, V domains shown, human IgG1 PG LALA; from transgenic rabbit immunization; also called LTBR (9457)) VH: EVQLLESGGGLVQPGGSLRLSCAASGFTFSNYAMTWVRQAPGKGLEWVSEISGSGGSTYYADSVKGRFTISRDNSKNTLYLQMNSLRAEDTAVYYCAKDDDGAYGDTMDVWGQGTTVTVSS VL: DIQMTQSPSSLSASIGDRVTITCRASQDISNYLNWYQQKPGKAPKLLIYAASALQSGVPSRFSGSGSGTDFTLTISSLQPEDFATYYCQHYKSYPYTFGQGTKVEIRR"
  measure: "koff"
  reported.result: "0.000636 s⁻¹"
- binder: "P1AE9459 (antibody, human IgG1, kappa, L234A L235A, V domains shown, human IgG1 PG LALA; from transgenic rabbit immunization) VH: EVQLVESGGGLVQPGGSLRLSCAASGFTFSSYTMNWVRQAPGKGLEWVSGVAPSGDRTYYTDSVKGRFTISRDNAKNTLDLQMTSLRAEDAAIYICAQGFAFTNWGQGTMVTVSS VL: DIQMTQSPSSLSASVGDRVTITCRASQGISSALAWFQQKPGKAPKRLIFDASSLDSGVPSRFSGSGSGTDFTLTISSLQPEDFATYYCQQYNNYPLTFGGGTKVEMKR"
  measure: "koff"
  reported.result: "0.000217 s⁻¹"
